Provide the recorded MIC for the entries that follow.
- Tested on: B. subtilis DBM 3006
- Format: cell-based, Bacillus subtilis
- run-parameters: DBM 3006, 24 h
Residues, ends and D or L forms follow the SMILES beside them. *: point of attachment. Lithocholoyl = C[C@H](CCC(=O)*)[C@H]1CC[C@H]2[C@@H]3CC[C@@H]4C[C@H](O)CC[C@]4(C)[C@H]3CC[C@]12C; Palmitoyl = CCCCCCCCCCCCCCCC(=O)*
Please state the figure in µg/mL; there is no need to write the unit.

q: Sample CCCCCCCCCCCCCCCC(=O)NCC(=O)N[C@H](C(=O)N[C@@H](CC(C)C)C(=O)N[C@@H](CCCCN)C(=O)N[C@@H](CCCNC(=N)N)C(=O)N[C@@H](C)C(N)=O)C(C)C [SHP-3.2, PAL-GVLKRA-NH2] (Palmitoyl-GVLKRA-NH2) — what was its MIC?
a: 41.1

q: And for CC(C)C[C@H](NC(=O)[C@@H](NC(=O)CNC(=O)CC[C@@H](C)[C@H]1CC[C@H]2[C@@H]3CC[C@@H]4C[C@H](O)CC[C@]4(C)[C@H]3CC[C@]12C)C(C)C)C(=O)N[C@@H](CCCCN)C(=O)N[C@@H](CCCNC(=N)N)C(=O)N[C@@H](C)C(N)=O [SHP-3.3, LCA-GVLKRA-NH2] (Lithocholoyl-GVLKRA-NH2) ?
a: 34.3

q: And for CC(C)C[C@H](NC(=O)CC[C@@H](C)[C@H]1CC[C@H]2[C@@H]3CC[C@@H]4C[C@H](O)CC[C@]4(C)[C@H]3CC[C@]12C)C(=O)N[C@H](C(=O)N[C@@H](CCCCN)C(=O)NCC(=O)N[C@@H](C)C(=O)N[C@@H](CCCNC(=N)N)C(N)=O)C(C)C [SHP-2.3, LCA-LVKGAR-NH2] (Lithocholoyl-LVKGAR-NH2) ?
a: 6.9

q: And for CCCCCCCCCCCCCCCC(=O)N[C@@H](CC(C)C)C(=O)N[C@H](C(=O)N[C@@H](CCCCN)C(=O)N[C@@H](CCCNC(=N)N)C(=O)N[C@@H](C)C(=O)NCC(N)=O)C(C)C [SHP-1.2, PAL-LVKRAG-NH2] (Palmitoyl-LVKRAG-NH2) ?
a: 16.9

q: And for CC(C)C[C@H](NC(=O)CC[C@@H](C)[C@H]1CC[C@H]2[C@@H]3CC[C@@H]4C[C@H](O)CC[C@]4(C)[C@H]3CC[C@]12C)C(=O)N[C@H](C(=O)N[C@@H](CCCCN)C(=O)N[C@@H](CCCNC(=N)N)C(=O)N[C@@H](C)C(=O)NCC(N)=O)C(C)C [SHP-1.3, LCA-LVKRAG-NH2] (Lithocholoyl-LVKRAG-NH2) ?
a: 31.5

----------
- Tested on: HepG2
- measurement-notes: Cytotoxicity assay (xCELLigence impedance)
- Format: cell-based, human
- run-parameters: c 200 µg/mL, 24 h exposure
Residues, ends and D or L forms follow the SMILES beside them. *: point of attachment. Lithocholoyl = C[C@H](CCC(=O)*)[C@H]1CC[C@H]2[C@@H]3CC[C@@H]4C[C@H](O)CC[C@]4(C)[C@H]3CC[C@]12C; Palmitoyl = CCCCCCCCCCCCCCCC(=O)*
parameter-measured: % inhibition (%)
Please state the figure in %; there is no need to write the unit.

q: Sample CC(C)C[C@H](NC(=O)CC[C@@H](C)[C@H]1CC[C@H]2[C@@H]3CC[C@@H]4C[C@H](O)CC[C@]4(C)[C@H]3CC[C@]12C)C(=O)N[C@H](C(=O)N[C@@H](CCCCN)C(=O)N[C@@H](CCCNC(=N)N)C(=O)N[C@@H](C)C(=O)NCC(N)=O)C(C)C [SHP-1.3, LCA-LVKRAG-NH2] (Lithocholoyl-LVKRAG-NH2) — what was its % inhibition?
a: 97.8

q: And for CCCCCCCCCCCCCCCC(=O)NCC(=O)N[C@H](C(=O)N[C@@H](CC(C)C)C(=O)N[C@@H](CCCCN)C(=O)N[C@@H](CCCNC(=N)N)C(=O)N[C@@H](C)C(N)=O)C(C)C [SHP-3.2, PAL-GVLKRA-NH2] (Palmitoyl-GVLKRA-NH2) ?
a: 23.2

q: And for CCCCCCCCCCCCCCCC(=O)N[C@@H](CC(C)C)C(=O)N[C@H](C(=O)N[C@@H](CCCCN)C(=O)N[C@@H](CCCNC(=N)N)C(=O)N[C@@H](C)C(=O)NCC(N)=O)C(C)C [SHP-1.2, PAL-LVKRAG-NH2] (Palmitoyl-LVKRAG-NH2) ?
a: 67.9

q: And for CCCCCCCCCCCCCCCC(=O)N[C@@H](CC(C)C)C(=O)N[C@H](C(=O)N[C@@H](CCCCN)C(=O)NCC(=O)N[C@@H](C)C(=O)N[C@@H](CCCNC(=N)N)C(N)=O)C(C)C [SHP-2.2, PAL-LVKGAR-NH2] (Palmitoyl-LVKGAR-NH2) ?
a: 18.5
